Every entry's value here was drawn from ChEMBL document CHEMBL4043308.

Target of assay: Autotaxin (Mus musculus)
Test name: Inhibition of mouse ATX-beta using LPC 18:0 as substrate by Amplex Red PLD assay
Listed next: entries and their corresponding IC50.
Lab book: enter the figure in nM, no units written.

Please review the entries below; each comes with its answer.
> print(dat)
                                   molecule  val
1  O=C(Cc1ccc(NC(=O)CCCCC(=O)Nc2ccccc2)cc1)NO  200
2  O=C(CCCCC(=O)Nc1ccc(CC(=O)C(F)(F)C(F)(F)F)cc1)Nc1ccccc1  500

Recall and state the measured IC50 for O=C(CCCCC(=O)Nc1ccc(B(O)O)cc1)Nc1ccccc1 .
4000
